We begin with a simple list: items and their reported microsomal stability Cl [% Qh].
- method.description: Human liver microsomal stability test
- Type: in vitro ADME
- conditions: human liver microsomes; Qh = liver blood flow
Give the number; % Qh is assumed, so skip it.

Sample records with microsomal stability Cl [% Qh]:
INSERT INTO measurements (given_smiles, observed_result) VALUES
  ('COc1cc(-c2cc(O[C@H](C)[C@H]3CNC(=O)C3)c3cccnc3c2)ccc1OC(C)C', 57),
  ('COc1cc(-c2cc3ncccc3c(O[C@H](C)[C@H]3CNC(=O)C3)n2)cc(OC)c1Cl', 77);

Kindly consider the entry below.
Lookup: I would be grateful if you could share the reported microsomal stability Cl [% Qh] for Cc1nc2cc(-c3cc(O[C@H](C)[C@H]4CNC(=O)C4)c4cccnc4c3)ccc2[nH]1 .
Found: 41

---

- measured.on: Recombinant human Syk (amino acids 342-635), GST-Syk kinase fusion protein (Homo sapiens (Human))
- method.description: Syk kinase test (Kinase Glo luminescence)
- Type: biochemical
- conditions: read-out: IC50 in μM (SYK-Inhibition)
We begin with a simple list: items and their reported IC50.
Give the number; µM is assumed, so skip it.

INSERT INTO assay_data (molecule, observed_result) VALUES
  ('C[C@@H](Oc1cc(-c2ccc3c(c2)c(N)nn3C)cc2nn(C)cc12)[C@H]1CNC(=O)C1 [Example 36]', 0.0172),
  ('C[C@@H](Oc1cc(-c2ccc3c(cnn3C)c2)cc2nn(C)cc12)[C@H]1CNC(=O)C1 [Example 28]', 0.0335),
  ('COc1cc(-c2cc(O[C@H](C)[C@H]3CNC(=O)C3)c3cccnc3c2)ccc1C(F)(F)F [102 of WO 2013/014060]', 0.013),
  ('C[C@@H](Oc1nc(-c2ccc(C(F)F)nc2)cc2nn(C)cc12)[C@H]1CNC(=O)C1 [Example 51]', 0.366),
  ('Cc1nc(C)c2cc(-c3cc(O[C@H](C)[C@H]4CNC(=O)C4)c4cccnc4c3)ccc2n1 [107 of WO 2013/014060]', 0.009),
  ('C[C@@H](Oc1nc(-c2ccc3cnn(C)c3c2)cc2nn(C)cc12)[C@H]1CNC(=O)C1 [Example 72]', 0.0526),
  ('COc1cc(-c2cc3ncccc3c(O[C@H](C)[C@H]3CNC(=O)C3)n2)ccc1OC(F)(F)F [4 of WO 2011/092128]', 0.003),
  ('COc1cc(-c2cc3nn(C)cc3c(O[C@H](C)[C@H]3CNC(=O)C3)n2)ccc1OC(C)C [Example 81]', 0.024),
  ('C[C@@H](Oc1cc(-c2ccc(F)cn2)cc2nn(C)cc12)[C@H]1CNC(=O)C1 [Example 41]', 0.164),
  ('C[C@@H](Oc1cc(-c2ccccn2)cc2ncccc12)[C@H]1CNC(=O)C1 [6 of WO 2013/014060]', 0.004);

Lookup: I would be grateful if you could share the reported IC50 for C[C@@H](Oc1cc(-c2ccc3c(c2)ncn3C)cc2ncccc12)[C@H]1CNC(=O)C1 [94 of WO 2013/014060] .
Found: 0.001

Lookup: I would be grateful if you could share the reported IC50 for C[C@@H](Oc1nc(-c2ccc(N3CCN(C)CC3)cc2)cc2nn(C)cc12)[C@H]1CNC(=O)C1 [Example 67] .
Found: 0.0152

Lookup: I would be grateful if you could share the reported IC50 for C[C@@H](Oc1nc(-c2ccc(C(F)(F)F)nc2)cc2nn(C)cc12)[C@H]1CNC(=O)C1 [Example 61] .
Found: 0.475

Lookup: I would be grateful if you could share the reported IC50 for Cc1nc2cc(-c3cc(O[C@H](C)[C@H]4CNC(=O)C4)c4cccnc4c3)ccc2[nH]1 [109 of WO 2013/014060] .
Found: 0.001

Lookup: I would be grateful if you could share the reported IC50 for C[C@@H](Oc1cc(-c2ccc(N3CCN(C)CC3)cc2)cc2nn(C)cc12)[C@H]1CNC(=O)C1 [Example 26] .
Found: 0.0258
